These entries and their values trace back to patent US20070020327A1.

Target: HLA-A*6802 (human)
Assay: competitive inhibition of 125I-labelled standard peptide binding to purified HLA
QUANTITY: IC50 (nM)
Could you give me the number in nM? Just the number is fine.

In: What IC50 value was documented for this binder, LVCNGVLQGV (modifications not checked) [Peptide 1418.55, … (PSA.213.V10)] ?
Out: 3.5
